conditions: buffer; pH 7.4; 200.0 µM
# solubility kinetic per entry
Result Type: solubility kinetic (µg/mL)

CC(C)(C)c1csc(NC(=O)c2c(F)c(F)c(F)c(F)c2F)n1: 21.3
COC(=O)c1cc(S(=O)(=O)N(C)C2CCCCC2)oc1C: 37.5
CN1CCN(C(=O)C2CCC(C)(C(=O)O)C2(C)C)CC1 (configuration not stated): 40.5
Nc1ccccc1SCc1ccccc1: 4
Cc1cnc(NC(=O)c2ccccn2)s1: 29.3
COc1ccc2oc(N)c(C=O)c(=O)c2c1: 30.8

* * *

details: buffer; pH 7.4; 200.0 µM
# solubility kinetic per entry
Result Type: solubility kinetic

O=C(c1cc2ccccc2oc1=O)N1CCOCC1: > 38.9 µg/mL
CO/N=C(\CCC(=O)O)c1cccs1: > 32 µg/mL
COc1ccc(C(=O)OCC(=O)NC2CC2)cc1OC: > 41.9 µg/mL
O=[N+]([O-])c1ccc(Oc2ncccn2)cc1: 28.4 µg/mL
O=C(c1ccccc1F)N1C(=O)c2cccc3cccc1c23: < 0.6 µg/mL
CCOC(=O)c1c(S(=O)(=O)N2CCCC2)c(C)n(C)c1C: > 47.2 µg/mL
CCOc1ccc(NC(=O)CC(Cc2cc(C)cc(C)c2)C(=O)O)cc1 (configuration not stated): > 53.3 µg/mL
O=C(Nc1cccnc1)c1ccccc1Cl: > 34.9 µg/mL
O=C(NCCNC(=O)c1ccco1)c1ccco1: 30.5 µg/mL
O=C(Nc1ccc(N2CCOCC2)c(F)c1)c1cccs1: 17 µg/mL
Cc1cc(=O)[nH]c(SCC(=O)NC2CCCCCCC2)n1: > 46.4 µg/mL
C[N+]1(C)CCc2cc3c(cc2[C@H]1[C@@H]1OC(=O)c2c1ccc1c2OCO1)OCO3.[I-]: > 76.4 µg/mL
